Reference source for all entries: patent US10392422B2

- Tested on: MRSA COL (NRS100)
- Experiment description: MIC, broth micro-dilution technique (CLSI)
- Format: cell-based, Staphylococcus aureus
- Experimental conditions: Staphylococcus aureus, 22 h, read-out: MIC (μg/mL) (COL)
Assign labels as follows, please: Yes for MIC below 3 µg/mL; No for MIC equal to or exceeding 3 µg/mL.

{"columns": ["Smiles repr", "Label class"],
 "data": [
  ["C[C@H](NC(=O)CCC(=O)[C@H](C)NC(=O)[C@@H]1Cc2ccc(O)c(c2)-c2cc(ccc2O)[C@H](N(C)C(=O)[C@H](CCCCN)NC(=O)c2ccc(-c3ccc(Cl)cc3)cc2)C(=O)N[C@@H](C)C(=O)N1)C(=O)O", "No"],
  ["CCCCc1ccc(-c2ccc(C(=O)N[C@@H](CCCCN)C(=O)N(C)[C@@H]3C(=O)N[C@@H](C)C(=O)N[C@H](C(=O)NCc4nnn[nH]4)Cc4ccc(O)c(c4)-c4cc3ccc4OCCN)cc2)cc1", "Yes"],
  ["CCCCCCCCc1ccc(C(=O)N[C@@H](CCCN)C(=O)N(C)[C@@H]2C(=O)N[C@@H](C)C(=O)N[C@H](C(=O)N[C@@H](C)B3O[C@@H]4C[C@@H]5C[C@@H](C5(C)C)[C@]4(C)O3)Cc3ccc(OCCN)c(c3)-c3cc2ccc3OCCN)c(C)c1", "Yes"],
  ["CCOC(=O)CCC(=O)[C@H](C)NC(=O)[C@@H]1Cc2ccc(O)c(c2)-c2cc(ccc2O)[C@H](N(C)C(=O)[C@H](CCCCN)NC(=O)c2ccc(-c3ccc(Cl)cc3)cc2)C(=O)N[C@@H](C)C(=O)N1", "No"],
  ["C[C@H](NC(=O)[C@@H]1CCCN1C(=O)[C@H](C)NC(=O)[C@@H]1Cc2ccc(O)c(c2)-c2cc(ccc2O)[C@H](N(C)C(=O)[C@H](CCCCN)NC(=O)c2ccc(-c3ccc(Cl)cc3)cc2)C(=O)N[C@@H](C)C(=O)N1)C(N)=O", "No"],
  ["CCCCCCCCc1ccc(C(=O)N[C@@H](CCCN)C(=O)N(C)[C@@H]2C(=O)N[C@@H](C)C(=O)N[C@H](C(=O)NCB3O[C@@H]4C[C@@H]5C[C@@H](C5(C)C)[C@]4(C)O3)Cc3ccc(OCCN)c(c3)-c3cc2ccc3OCCN)cc1", "Yes"]
]}

Please let me know if CCCCCCCCCCNCCC(=O)N[C@@H](CCCCN)C(=O)N(C)[C@@H]1C(=O)N[C@@H](C)C(=O)N[C@H](C(=O)O)Cc2ccc(O)c(c2)-c2cc1ccc2OCCN shows MIC below 3 µg/mL.
Yes

Please let me know if C[C@@H]1NC(=O)[C@@H](N(C)C(=O)[C@H](CCCCN)NC(=O)c2ccc(-c3ccc(Cl)cc3)cc2)c2ccc(O)c(c2)-c2cc(ccc2O)C[C@@H](C(=O)N[C@@H](C)C(=O)N(C)[C@@H](CC(=O)O)C(N)=O)NC1=O shows MIC below 3 µg/mL.
No

Please let me know if C[C@@H]1NC(=O)[C@@H](N(C)C(=O)[C@H](CCCCN)NC(=O)c2ccc(-c3ccc(Cl)cc3)cc2)c2ccc(O)c(c2)-c2cc(ccc2O)C[C@@H](C(=O)NC/C=C/S(C)(=O)=O)NC1=O shows MIC below 3 µg/mL.
No
